measured target: Ras farnesyl transferase (Homo sapiens, UniProt P49354+P49356)
Construct: made in house
test description: Ras farnesyl transferase inhibiting activity (filter-binding, tritium-farnesylpyrophosphate, Ras-CVLS substrate)
Type: biochemical
measurement parameters: recombinant Ras farnesyl transferase, 30 minutes at 37° C., read-out: Ftase IC50
measurement label: IC50 (nM)

Here are 3 compounds together with their reported answers.
{"compound": "O=C(OCc1ccccc1)N1CCC(Cn2cncc2CN2C(=O)CN(Cc3cccc4ccccc34)C2=O)CC1", "IC50 / nM": 5000}
{"compound": "CC1(c2cccc3ccccc23)C(=O)N(Cc2cncn2Cc2ccc(C#N)cc2)C(=O)N1Cc1cccc(C#N)c1 (stereo not shown)", "IC50 / nM": 50}
{"compound": "CC1(c2cccc3ccccc23)C(=O)N(CCCn2ccnc2)C(=O)N1Cc1cccc(CNS(C)(=O)=O)c1 (stereo not shown)", "IC50 / nM": 1200}

I = COC(=O)C(CCSC)NC(=O)CN1C(=O)N(Cc2cnc[nH]2)C(=O)C1(C)c1cccc2ccccc12 (stereo not shown)
II = CCOC(=O)CN1C(=O)N(CCCc2cncn2Cc2ccc(Br)cc2)C(=O)C1(C)c1cccc2ccccc12 (stereo not shown)
For the two items I and II , which reports the higher IC50 value? I would appreciate it if you answered with the label of your choice. I

a = CC1(c2cccc3ccccc23)C(=O)N(CCCn2ccnc2)C(=O)N1Cc1cccc(Br)c1 (stereo not shown)
b = COC(=O)C[C@H]1C(=O)N(Cc2cncn2Cc2ccc(C#N)cc2)C(=O)N1Cc1cccc2ccccc12
Identify the entry with the larger IC50. Options: a and b Response format: the label of the selected entry. a
(a: 300 nM, b: 40 nM)

---

measured target: Ras farnesyl transferase (Homo sapiens, UniProt P49354+P49356)
Construct: made in house
test description: Ras farnesyl transferase inhibiting activity (filter-binding, tritium-farnesylpyrophosphate, Ras-CVLS substrate)
Type: biochemical
measurement parameters: recombinant Ras farnesyl transferase, 30 minutes at 37° C., read-out: Ftase IC50
measurement label: IC50 (µM)

These solved cases illustrate the format of a correct answer.
{"compound": "CN1C(=O)N(CCCc2cncn2Cc2ccc(Br)cc2)C(=O)C1(C)c1cccc2ccccc12 (stereo not shown) [Compound 69]", "measurement label": "IC50", "value measured": 0.3}
{"compound": "CC1(c2cccc3ccccc23)C(=O)N(CCCn2ccnc2)C(=O)N1Cc1ccc(C(=O)N2CCOCC2)cc1 (stereo not shown) [Compound 40]", "measurement label": "IC50", "value measured": 1.4}
{"compound": "CC1(c2cccc3ccccc23)NC(=O)N(CCCc2cncn2Cc2ccc(C#N)cc2)C1=O (stereo not shown) [Compound 45]", "measurement label": "IC50", "value measured": 5.5}

1 = CC1(c2ccccc2)C(=O)N(CCCn2ccnc2)C(=O)N1Cc1cccc(C#N)c1 (stereo not shown) [Compound 71]
2 = COC(=O)C(CCSC)NC(=O)CN1C(=O)N(Cc2cncn2Cc2ccc(C#N)cc2)C(=O)C1(C)c1cccc2ccccc12 (stereo not shown) [Compound 7]
3 = O=C(OCc1ccccc1)N1CCC(Cn2cncc2CN2C(=O)CN(c3cccc4ccccc34)C2=O)CC1 [Compound 74]
With regard to IC50, arrange the entries in ascending order, please. When ranking, write the labels in the order the request describes. 2, 3, 1

---

measured target: Ras farnesyl transferase (Homo sapiens, UniProt P49354+P49356)
test description: Ras farnesyl transferase inhibiting activity (filter-binding, tritium-farnesylpyrophosphate, Ras-CVLS substrate)
measurement parameters: recombinant Ras farnesyl transferase, 30 minutes at 37° C., read-out: Ftase IC50
pIC50: −log10 of the molar value.
measurement label: pIC50

Example entries and their recorded answers appear below.
{"molecule": "CC1(c2cccc3ccccc23)C(=O)N(CCCn2ccnc2)C(=O)N1Cc1cccc(C#N)c1 (stereo not shown)", "pIC50": 7.04}
{"molecule": "CN1CCN(C(=O)C[C@H]2C(=O)N(Cc3cncn3Cc3ccc(C#N)cc3)C(=O)N2Cc2cccc3ccccc23)CC1", "pIC50": 6.92}

A = CSCCC(NC(=O)CN1C(=O)N(CCCn2ccnc2)C(=O)C1(C)c1cccc2ccccc12)C(=O)O (stereo not shown)
B = CC1(c2cccc3ccccc23)C(=O)N(CCCn2ccnc2)C(=O)N1CC(=O)NC1(C#N)CCOCC1 (stereo not shown)
For the pair A and B , which entry has the numerically smaller recorded pIC50? Write the label of whichever entry you select. B
(B: 5.44, A: 9.00)

---

measured target: Ras farnesyl transferase (Homo sapiens, UniProt P49354+P49356)
test description: Ras farnesyl transferase inhibiting activity (filter-binding, tritium-farnesylpyrophosphate, Ras-CVLS substrate)
measurement parameters: recombinant Ras farnesyl transferase, 30 minutes at 37° C., read-out: Ftase IC50
measurement label: IC50 (nM)

{"compound": "CC1(c2cccc3ccccc23)C(=O)N(CCCc2cnc[nH]2)C(=O)N1CC(=O)NC(CCS(C)(=O)=O)C(=O)O (stereo not shown) [Compound 13]", "measured target": "Ras farnesyl transferase (Homo sapiens, UniProt P49354+P49356)", "measurement label": "IC50", "unit name": "nM", "value measured": 1.5}
{"compound": "CC1(c2cccc3ccccc23)C(=O)N(CCCn2ccnc2)C(=O)N1Cc1cccc(Cl)c1 (stereo not shown) [Compound 19]", "measured target": "Ras farnesyl transferase (Homo sapiens, UniProt P49354+P49356)", "measurement label": "IC50", "unit name": "nM", "value measured": 240}
{"compound": "COC(=O)C(CCSC)NC(=O)CN1C(=O)N(CCCc2c[nH]cn2)C(=O)C1(C)c1cccc2ccccc12 (stereo not shown) [Compound 1]", "measured target": "Ras farnesyl transferase (Homo sapiens, UniProt P49354+P49356)", "measurement label": "IC50", "unit name": "nM", "value measured": 500}

A = CC1(c2cccc3ccccc23)C(=O)N(CCCn2ccnc2)C(=O)N1Cc1ccccc1CNS(C)(=O)=O (stereo not shown) [Compound 35]
B = COC(=O)[C@H](CCSC)NC(=O)CC1C(=O)N(Cc2cncn2Cc2ccc(C#N)cc2)C(=O)N1Cc1cccc2ccccc12 (stereo partly shown) [Compound 85]
I'm curious, which of these has a smaller IC50 number: A or B ? State the label of the item chosen. B
(B: 200 nM, A: 500 nM)

P = CSc1ccc(CN2C(=O)N(CCCn3ccnc3)C(=O)C2(C)c2cccc3ccccc23)cc1 (stereo not shown) [Compound 26]
Q = CC1(c2cccc3ccccc23)C(=O)N(CCCn2ccnc2)C(=O)N1Cc1cccc(OC(F)(F)F)c1 (stereo not shown) [Compound 23]
Recorded IC50 values differ for P and Q ; which one is higher? Refer to your chosen item by its label in the answer. Q

---

measured target: Ras farnesyl transferase (Homo sapiens, UniProt P49354+P49356)
test description: Ras farnesyl transferase inhibiting activity (filter-binding, tritium-farnesylpyrophosphate, Ras-CVLS substrate)
measurement parameters: recombinant Ras farnesyl transferase, 30 minutes at 37° C., read-out: Ftase IC50
measurement label: IC50 (nM)

Check out these entries, answers already filled in.
{"compound": "CSCCC(NC(=O)CN1C(=O)N(CCn2ccnc2)C(=O)C1(C)c1cccc2ccccc12)C(=O)O (stereo not drawn) [Compound 15]", "measurement label": "IC50", "value measured": 2}
{"compound": "CC1(c2cccc3ccccc23)C(=O)N(CCCc2cnc[nH]2)C(=O)N1CC(=O)NC(Cc1cccs1)C(=O)O (stereo not drawn) [Compound 9]", "measurement label": "IC50", "value measured": 15}
{"compound": "CN(C)CCNC(=O)CC1C(=O)N(Cc2cncn2Cc2ccc(C#N)cc2)C(=O)N1Cc1cccc2ccccc12 (stereo not drawn) [Compound 82]", "measurement label": "IC50", "value measured": 150}
{"compound": "COCCNC(=O)c1ccc(CN2C(=O)N(CCCn3ccnc3)C(=O)C2(C)c2cccc3ccccc23)cc1 (stereo not drawn) [Compound 41]", "measurement label": "IC50", "value measured": 530}
{"compound": "CC1(c2cccc3ccccc23)C(=O)N(CCCn2ccnc2)C(=O)N1Cc1ccc(CN)cc1 (stereo not drawn) [Compound 34]", "measurement label": "IC50", "value measured": 2100}

A = CSCCC(NC(=O)CN1C(=O)N(Cc2cncn2Cc2ccc(C#N)cc2)C(=O)C1(C)c1cccc2ccccc12)C(=O)O (stereo not drawn) [Compound 8]
B = CN1C(=O)N(CCCc2cncn2Cc2ccc(C#N)cc2)C(=O)C1(C)c1cccc2ccccc12 (stereo not drawn) [Compound 46]
C = COC(=O)C(CCSC)NC(=O)CN1C(=O)N(CCc2c[nH]cn2)C(=O)C1(C)c1cccc2ccccc12 (stereo not drawn) [Compound 3]
Arrange these compounds by their IC50, starting with the largest number. Show the ranking through the labels, in the order asked for. C, B, A

a = CC1(c2cccc3ccccc23)C(=O)N(CCCn2ccnc2)C(=O)N1Cc1ccc(CNS(C)(=O)=O)cc1 (stereo not drawn) [Compound 37]
b = CSCCC1SCCN1C(=O)CN1C(=O)N(CCCc2cnc[nH]2)C(=O)C1(C)c1cccc2ccccc12 (stereo not drawn) [Compound 12]
c = CN1C(=O)N(Cc2cncn2Cc2ccc(C#N)cc2)C(=O)C1(C)c1cccc2ccccc12 (stereo not drawn) [Compound 60]
d = CC1(c2cccc3ccccc23)C(=O)N(CCCn2ccnc2)C(=O)N1Cc1cccnc1 (stereo not drawn) [Compound 18]
e = N#Cc1ccc(Cn2cncc2CN2C(=O)CN(c3cccc4ccccc34)C2=O)cc1 [Compound 72]
Let's sort these by IC50, smallest first. Go ahead? Output the labels ranked as instructed. e, c, a, d, b
(e: 20 nM, c: 160 nM, a: 350 nM, d: 600 nM, b: 5500 nM)

P = CCN1C(=O)N(Cc2cncn2Cc2ccc(C#N)cc2)C(=O)C1(C)c1cccc2ccccc12 (stereo not drawn) [Compound 61]
Q = N#Cc1ccc(Cn2cncc2CN2C(=O)C(CC(=O)O)N(Cc3cccc4ccccc34)C2=O)cc1 (stereo not drawn) [Compound 78]
Could you please tell me which of these two has the higher IC50: P or Q ? Kindly state the label of the option you pick. P
(P: 160 nM, Q: 100 nM)
